B1: PTPRD (parent)
chain: MVHVARLLLLLLTFFLRTDAETPP

Variants of: B1
Test protocol: protein stability index of a GFP-peptide fusion (GPS, HEK-293T) (PSI 1-6); higher = more stable;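 also: lentivirally expressed fusions sorted by FACS into six bins by GFP to DsRed ratio, PSI derived from sequencing read proportions per bin multiplied by bin number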
Applied conditions: c terminus: a fixed tail appended
Readout type: protein stability index
// no unit, no text: just the number

Given the variant MVHVARLLLLLLTFFRRTDAETPP [L16R] , what is its reported protein stability index?
1.72

Same thing, different variant: MVHVARLLLMLLTFFLRTDAETPP [L10M]
2.42

Same thing, different variant: MVHVARLLLLLLMFFLRTDAETPP [T13M]
3.59

Same thing, different variant: MVHVARCLLLLLTFFLRTDAETPP [L7C]
2.95

Same thing, different variant: MVHLARLLLLLLTFFLRTDAETPP [V4L]
3.81

Same thing, different variant: MVHVARLLLLLLTFFLRTDAETAP [P23A]
2.42

Same thing, different variant: MVHVARLLLLNLTFFLRTDAETPP [L11N]
3.99

Same thing, different variant: MVHVARLLLLLLTFFLRTDIETPP [A20I]
1.81

Same thing, different variant: MVHVARLLLLLLTFPLRTDAETPP [F15P]
2.01

Same thing, different variant: MVHVARKLLLLLTFFLRTDAETPP [L7K]
3.28

Same thing, different variant: MVHVARLLLLLLTFFLRTDAEWPP [T22W]
5.11

Same thing, different variant: MVHVARLLLLLLTRFLRTDAETPP [F14R]
1.98

Same thing, different variant: MVHVARLLYLLLTFFLRTDAETPP [L9Y]
2.74

Same thing, different variant: MVHVARLLLLLLTLFLRTDAETPP [F14L]
1.98

Same thing, different variant: MVHVARLLLLSLTFFLRTDAETPP [L11S]
3.85

Same thing, different variant: MVHVAFLLLLLLTFFLRTDAETPP [R6F]
1.74

Same thing, different variant: MVHVAELLLLLLTFFLRTDAETPP [R6E]
3.41

Same thing, different variant: MVHVARLLLLLLTFFLRTDAETNP [P23N]
2.49

Same thing, different variant: MVKVARLLLLLLTFFLRTDAETPP [H3K]
1.78

Same thing, different variant: MVHVARLLLLLLTFYLRTDAETPP [F15Y]
3

Same thing, different variant: MVHVARLLLLLLTFFLRTDAKTPP [E21K]
2.66

Same thing, different variant: MVHVARLLLLLLTIFLRTDAETPP [F14I]
2.56
